readout: melting point

Field: example entries. Status: answers known.
CC(=O)C1=C(C)NC(=O)N(C(C)=O)C1c1ccccc1 (stereo not given) ... 181 to 183 °C
COc1cc(C=O)cc(OC)c1NC=O ... 159 to 160 °C
COc1cc(/C(C#N)=C/c2ccc(C)c([N+](=O)[O-])c2)cc(OC)c1OC ... 162 to 163 °C
NNc1cnc(-c2ccccc2)cn1 ... 98 to 99 °C

Turning now to a further record.
For reference, reported melting point for Cc1cc(C)cc(Sc2c(C(C)C)c(=O)[nH]c(=O)n2CC2=CCCC2CO)c1 (stereo not given) stands at 66 to 68 °C

* * *

Measured melting point accompanies every entry in the list below.

For record Cc1nc(N2CCN(CC3CC3)C2=O)sc1C(=O)NCc1cccnc1 the listed melting point is 157 to 158 °C

* * *

readout: melting point (°C)

[P] COc1ccc(CN(C)CCc2ccc(NC(=O)c3cccc4c(=O)c5cccc(SC)c5[nH]c34)cc2)cc1OC
[Q] Cn1cc(-c2nnn[nH]2)c(=O)c2ccccc21
[ask] From the items above, decide which of P and Q has the lower melting point reading. Respond using the label that marks the chosen record.
[reply] P
(P: 190 °C, Q: 306 °C)

* * *

# melting point per record follows

Given item CC(CN1CCN(c2ccc(F)cc2)CC1)CN1c2cccc3cccc(c23)S1(=O)=O (stereo not drawn) , the value recorded as its melting point is 133 °C

* * *

readout: melting point

Cc1cc(=O)c2ccc(OCCCCl)cc2o1 ... 113 to 115 °C
O=c1n(Cc2ccccc2)c2cc(Cl)ccc2n1C1CCNCC1 ... 128 °C
CCC(=O)N[C@@H]1CN(C(=O)c2nn(C)c3ccccc23)C[C@@H]1C (relative stereo) ... 139 to 141 °C

Please fill in: melting point reported for CN1CCC(O)(c2cn(-c3ccnc(NC4CCCC4)n3)c(-c3cccc(C(F)(F)F)c3)n2)CC1 = 189 to 193 °C

The compound identified as CCC(CC)n1c(=O)n(C)c2c(Oc3c(C)cc(C)cc3C)nc(C)cc21 registered its melting point at 152 to 154 °C

For CCOC(=O)c1cccn2cc(C(F)(F)F)nc12 the compound record lists melting point as 108 to 110 °C

Query O=[N+]([O-])c1ccc(O)c(C=NCCC(F)=C(F)F)c1 yields melting point of 96 to 98 °C

Briefly, melting point measured for Fc1ccc(-c2ccn(C3CCCNC3)c2-c2ccncc2)cc1 (centres undefined) : 189 to 191 °C

So for CC(C)Oc1ccc2nc3ccc(C#N)cn3c(=O)c2c1 , the logged melting point turned out to be 234 to 236 °C

Reported melting point for CC(=O)Nc1ccc(CN2C(=O)[C@H]3CCC[C@H]3N(C(=O)CN3C(=O)c4ccccc4C3=O)c3ccccc32)cc1 (relative stereo) was 303 to 306 °C

* * *

readout: melting point

Consider the reported melting point for these molecules:
CCOC(=O)C1=C(NC(C)=O)Oc2cc(O)ccc2C1c1cccnc1 (stereo unspecified) ... 216 to 218 °C
C[C@@H](N1CCN(S(C)(=O)=O)CC1)[C@](O)(Cn1cncn1)c1ccc(F)cc1F ... 83 to 85 °C
N#Cc1ccc(C(=C2CCCCC2)c2nc[nH]n2)cc1 ... 92 to 93 °C
Cn1nc(-c2ccccc2C=O)c2ccccc21 ... 106 °C
CCOc1cc2c(C)c(CCN3CCN(c4ccccc4)CC3)c(=O)oc2cc1OC ... 164 to 165 °C
C[C@@H](NCCOCc1ccccc1)[C@](O)(Cn1cncn1)c1ccc(Cl)cc1Cl (relative stereo) ... 105 to 107 °C
COC(=O)N[C@@H](Cc1ccccc1)C(=O)CCl ... 121 to 122 °C
CC(C)(C)c1cc(P(c2ccccc2)c2ccccc2)cc(C(C)(C)C)c1O ... 92 to 93 °C
COC(=O)COCc1cc2cc(C(F)(F)F)ccc2n1S(=O)(=O)c1ccccc1 ... 90 to 92 °C
COc1cccc(C23CCCC=C2C(=O)N(CC2CCC2)C(=O)C3)c1 (stereo unspecified) ... 89 to 93 °C

Please examine the following record next.
The molecule listed as Cc1ccc(-n2nc(C(F)F)cc2-c2ccc(S(C)(=O)=O)cc2)cc1Br shows melting point equal to 136 to 138 °C
